Assay: Stability in human plasma assessed as compound remaining at 2 uM measured after 2 hrs by LC-MS/MS analysis
Assay type: ADME, cell-free
Conditions: read-out: Stability
RESULT TYPE: remaining at 2 h, 2 µM (%)
Hi! Could you send only the number? It should be in %, unit omitted.

The examples below pair each entry with its known result.
C=CC(=O)Nc1cccc(C)c1Nc1ncc(OCc2c(F)c(OC)cc(OC)c2F)cn1
48
C=CC(=O)N[C@H]1COC[C@H]1Nc1ncc(OCc2c(F)c(OC)cc(OC)c2F)cn1
92
C=CC(=O)N[C@H]1CCCC[C@H]1Nc1ncc(OCc2c(F)c(OC)cc(OC)c2F)cn1 (racemic)
96

Prompt: Requested read-out: remaining at 2 h, 2 µM. Entry: `C=CC(=O)Nc1cccc(C)c1Nc1ncc2cc(-c3c(Cl)c(OC)cc(OC)c3Cl)ccc2n1`
Response: 71

Prompt: Requested read-out: remaining at 2 h, 2 µM. Entry: `C=CC(=O)N[C@H]1CCOC[C@H]1Nc1ncc(OCc2c(F)c(OC)cc(OC)c2F)cn1`
Response: 90
